experiment: Pharmacokinetic study in rats, single intramuscular injection, plasma prodrug and parent drug by LC-MS/MS; assay type: in vivo, Sprague-Dawley rats; details: male, Sprague-Dawley, rat; analyte prodrug Compound 7 in plasma; Compound 7 IM 102.5 mg/kg, aqueous suspension; N = 4; mean
endpointName: MRT inf (h)
Express it in h; write the number only.

Challenge: Given CCCCCCCCCCCCCCCCCCCC(=O)Oc1ccc2c3c1O[C@H]1C(=O)CC[C@H]4[C@@H](C2)N(C)CC[C@]314 [Compound 7, Hydromorphone eicosanate] , state its recorded MRT inf.
Response given: 138

###

test: Pharmacokinetic study in rats, single intramuscular injection, plasma prodrug and parent drug by LC-MS/MS; assay type: in vivo, Sprague-Dawley rats; conditions: male, Sprague-Dawley, rat; analyte prodrug Compound 7 in plasma; Compound 7 IM 102.5 mg/kg, aqueous suspension; N = 4; mean; read-out: tmax
endpointName: tmax (h)
Express it in h; write the number only.

Challenge: Given CCCCCCCCCCCCCCCCCCCC(=O)Oc1ccc2c3c1O[C@H]1C(=O)CC[C@H]4[C@@H](C2)N(C)CC[C@]314 [Compound 7, Hydromorphone eicosanate] , state its recorded tmax.
Response given: 6.13

###

assay: Pharmacokinetic study in rats, single intramuscular injection, plasma prodrug and parent drug by LC-MS/MS; format: in vivo, Sprague-Dawley rats; conditions: male, Sprague-Dawley, rat; analyte prodrug Compound 7 in plasma; Compound 7 IM 102.5 mg/kg, aqueous suspension; N = 4; mean
endpointName: AUC(0-t)
# output: number + unit

Challenge: Given CCCCCCCCCCCCCCCCCCCC(=O)Oc1ccc2c3c1O[C@H]1C(=O)CC[C@H]4[C@@H](C2)N(C)CC[C@]314 [Compound 7, Hydromorphone eicosanate] , state its recorded AUC(0-t).
Response given: 2760 ng·h/mL

###

assay: Pharmacokinetic study in rats, single intramuscular injection, plasma prodrug and parent drug by LC-MS/MS; type: in vivo, Sprague-Dawley rats; conditions: male, Sprague-Dawley, rat; analyte prodrug Compound 7 in plasma; Compound 7 IM 102.5 mg/kg, aqueous suspension; N = 4; mean; read-out: Cmax
endpointName: Cmax (ng/mL)
Express it in ng/mL; write the number only.

Challenge: Given CCCCCCCCCCCCCCCCCCCC(=O)Oc1ccc2c3c1O[C@H]1C(=O)CC[C@H]4[C@@H](C2)N(C)CC[C@]314 [Compound 7, Hydromorphone eicosanate] , state its recorded Cmax.
Response given: 45.6
